I'd be grateful if you could share measured Biodistribution: Brain for these entries.
# METHOD SUMMARY: Biodistribution of radiotracers in normal mice
# Type: in vivo, mouse
# SETUP CONDITIONS: normal male mice, 60 min
I only need the number, in % dose/g, no unit after it.

QUERY: Can you look up the measured Biodistribution: Brain of O=C(O)CCc1ccc2c(n1)C[N+]13CC[N+]45CC(=O)[O][68Ga-3]14([O]C(=O)C3)([O]2)[O]c1ccc(CCC(=O)NCCCCCC(=O)NCCCC[C@H](NC(=O)N[C@@H](CCC(=O)O)C(=O)O)C(=O)O)nc1C5 (stereo partly shown) [[^68Ga]2] for me?
RESULT: 0.03

QUERY: What do we get for O=C(O)CC[C@H](NC(=O)CCc1ccc2c(c1)C[N+]13CC[N+]45CC(=O)[O][68Ga-3]41([O]C(=O)C3)([O]c1ccc(CCC(=O)NCCCCCC(=O)NCCCC[C@H](NC(=O)N[C@@H](CCC(=O)O)C(=O)O)C(=O)O)cc1C5)[O]2)C(=O)O (stereo partly shown) [[^68Ga]1f] ?
RESULT: 0.04

QUERY: What do we get for O=C(O)CCc1ccc(O)c(CN(CCN(CC(=O)O)Cc2cc(CCC(=O)NCCCCCC(=O)NCCCC[C@H](NC(=O)N[C@@H](CCC(=O)O)C(=O)O)C(=O)O)ccc2O)CC(=O)O)n1 [[^68Ga]4a, metal not drawn] ?
RESULT: 0.03

QUERY: What do we get for O=C(O)CC[C@H](NC(=O)N[C@@H](CCCCNC(=O)CCCCCNC(=O)CCc1ccc2c(c1)C[N+]13CC[N+]45CC(=O)[O][68Ga-3]14([O]C(=O)C3)([O]2)[O]c1ccc(CCC(=O)NCCNC(=O)CN2CCN(CC(=O)O)CCN(CC(=O)O)CCN(CC(=O)O)CC2)cc1C5)C(=O)O)C(=O)O (stereo partly shown) [[^68Ga]1g] ?
RESULT: 0.03

====

# METHOD SUMMARY: Biodistribution of radiotracers in normal mice
# Type: in vivo, mouse
# SETUP CONDITIONS: normal male mice, 30 min
Classify by measured Biodistribution: Pancreas: t if it is equal to or exceeds 0.8 % dose/g, f if it is smaller.

QUERY: # bool: Biodistribution: Pancreas of O=C(O)CCc1ccc2c(n1)C[N+]13CC[N+]45CC(=O)[O][68Ga-3]14([O]C(=O)C3)([O]2)[O]c1ccc(CCC(=O)NCCCCCC(=O)NCCCC[C@H](NC(=O)N[C@@H](CCC(=O)O)C(=O)O)C(=O)O)nc1C5 (stereo partly drawn) [[^68Ga]2] >= 0.8 % dose/g
RESULT: f

QUERY: What do we get for O=C(O)CC[C@H](NC(=O)N[C@@H](CCCCNC(=O)CCCCCNC(=O)CCc1ccc2c(n1)C[N+]13CC[N+]45CC(=O)[O][68Ga-3]14([O]C(=O)C3)([O]2)[O]c1ccc(CCC(=O)NCCCCCC(=O)NCCCC[C@H](NC(=O)N[C@@H](CCC(=O)O)C(=O)O)C(=O)O)nc1C5)C(=O)O)C(=O)O (stereo partly drawn) [[^68Ga]3] ?
RESULT: t

QUERY: What do we get for O=C(O)CC[C@H](NC(=O)N[C@@H](CCCCNC(=O)CCCCCNC(=O)CCc1ccc2c(c1)C[N+]13CC[N+]45CC(=O)[O][68Ga-3]14([O]C(=O)C3)([O]2)[O]c1ccc(CCC(=O)NCCNC(=O)CN2CCN(CC(=O)O)CCN(CC(=O)O)CCN(CC(=O)O)CC2)cc1C5)C(=O)O)C(=O)O (stereo partly drawn) [[^68Ga]1g] ?
RESULT: f

QUERY: What do we get for O=C(O)CCc1ccc(O)c(CN(CCN(CC(=O)O)Cc2cc(CCC(=O)NCCCCCC(=O)NCCCC[C@H](NC(=O)N[C@@H](CCC(=O)O)C(=O)O)C(=O)O)ccc2O)CC(=O)O)n1 [[^68Ga]4a, metal not drawn] ?
RESULT: t

QUERY: What do we get for O=C(O)CCc1ccc2c(c1)C[N+]13CC[N+]45CC(=O)[O][68Ga-3]14([O]C(=O)C3)([O]2)[O]c1ccc(CCC(=O)NCCCCCC(=O)NCCCC[C@H](NC(=O)N[C@@H](CCC(=O)O)C(=O)O)C(=O)O)cc1C5 (stereo partly drawn) [[^68Ga]1a, reference compound] ?
RESULT: f
